test.method.notes: The drug is tested on Bacteroides sp. WH2 strain: WH2 for biotransformation. The drug concentrations were measured before and after a 12-h incubation by liquid-chromatography-coupled mass spectrometry (LC–MS)
stated.conditions: bacteroides sp. wh2, 12 h, 2 µM

molecule: CC(CN(C)C)CN1c2ccccc2CCc2ccccc21.O=C(O)/C=C\C(=O)O (configuration not stated) [TRIMIPRAMINE MALEATE]
Bacterial Biotransformation: Compound NOT metabolized
//
molecule: C[C@]12C=CC(=O)C=C1CC[C@@H]1[C@@H]2C(=O)C[C@@]2(C)[C@H]1CC[C@]2(O)C(=O)CO
Bacterial Biotransformation: Compound NOT metabolized
//
molecule: NC(CO)(CO)CO.O=C(c1ccccc1)c1ccc2n1CCC2C(=O)O (configuration not stated)
Bacterial Biotransformation: Compound NOT metabolized
//
molecule: CCOc1ccc2nc(S(N)(=O)=O)sc2c1 [ETHOXZOLAMIDE]
Bacterial Biotransformation: Compound metabolized
//
molecule: CC(C)C[C@H]1C(=O)N2CCC[C@H]2[C@]2(O)O[C@](NC(=O)[C@@H]3C=C4c5cccc6[nH]c(Br)c(c56)C[C@H]4N(C)C3)(C(C)C)C(=O)N12.CS(=O)(=O)O [BROMOCRIPTINE MESYLATE]
Bacterial Biotransformation: Compound metabolized
//
molecule: CCCN(CCC)CCc1cccc2c1CC(=O)N2
Bacterial Biotransformation: Compound NOT metabolized
//
molecule: COc1ccccc1OCCNCC(O)COc1cccc2[nH]c3ccccc3c12 (configuration not stated)
Bacterial Biotransformation: Compound metabolized
